tested on: NCI-H522 lung; test: NCI tumour cell line growth inhibition, 48 h
Returns one of condition met or condition not met; condition met when TGI is >= 30 µM.

| molecule | discrete label |
| --- | --- |
| CCc1cccc(C)c1NC(=O)C1=C(C)NC(C)=C(C(=O)Nc2c(C)cccc2CC)C1c1ccc([N+](=O)[O-])cc1 | condition met |
| CC(C)=CCc1c(O)c(CC=C(C)C)c2oc(-c3ccc(O)cc3O)c(CC=C(C)C)c(=O)c2c1O | condition not met |
| Nc1nc(/C=C\c2ccc([N+](=O)[O-])cc2)nc(N2CCN(c3ccccc3)CC2)n1 | condition met |
| O=C(Cn1ccnc1[N+](=O)[O-])c1ccccc1 | condition met |
| Cc1ccc([N+](=O)[O-])cc1S(=O)(=O)Nc1ccc(C2=NN(C(=O)c3ccccc3)C(c3ccccc3)C2)cc1 (stereo not given) | condition met |
| O=C(O)c1cccc2cccc(-c3c4ccc(=O)cc-4oc4cc(O)ccc34)c12 | condition met |
| CN(C)CCC=C1c2ccccc2C=Cc2ccccc21 | condition met |
| O=c1c2cc(F)ccc2sc2c(N3CCNCC3)nc3ccccc3c12 | condition not met |

---

system: PC-3 prostate; test: NCI tumour cell line growth inhibition, 48 h; in the data active = GI50 below about 0.43 µM; inactive = the rest
Classes used: active, inactive

| smiles structure | discrete label |
| --- | --- |
| N=C(N)N=Nc1ccc(NN=C(N)N)c2c1ncc1c2nc2sccn21 | inactive |
| CCCCN1CCN(c2ccc3nc(-c4ccc5nc(-c6ccc(OC)c(OC)c6)[nH]c5c4)[nH]c3c2)CC1 | inactive |
| Fc1cnc(NC2CC2)nc1-c1cnc2ccc(N3CCOCC3)cn12 | active |
| CN1CCN(CCCOc2ccc3nc(Nc4cc(Cl)cc(Cl)c4)ccc3c2)CC1 | inactive |
| CCn1cc(C(=O)O)c(=O)c2cc(F)c(N3CCN(S(=O)(=O)c4ccc(Cl)cc4)CC3)cc21 | inactive |

---

Measured TGI by item
system: M14 melanoma; assay: NCI tumour cell line growth inhibition, 48 h
*1 amine or outer side, *2 acyl side, *3 side chain or, on linkers, in order; H or OH if unused. Where a SMILES comes first, the peptide text is derived from it. Bridges are numbered along the chain shown (N, C = ends). [ ]: non-standard residue; d: D form. The star is where a group is joined. Adda = CO[C@@H](Cc1ccccc1)[C@@H](C)/C=C(C)/C=C/[C@H](N[*:1])[C@H](C)C(=O)[*:2]; dAsp(3S-Me) = C[C@H](C(=O)[*:3])[C@@H](N[*:1])C(=O)[*:2]; d(γGlu) = O=C(O)[C@@H](CCC(=O)[*:2])N[*:1]; NMeDha = C=C(NC)C(=O)O; Boc = CC(C)(C)OC(=O)*
parameter measured: TGI

| compound | tested system | recorded result |
| --- | --- | --- |
| CCOC(=O)c1sc2nc(SC)nc3c2c1NCN3C1CC1 | M14 melanoma | > 100 µM |
| Cc1cc(C)c(S(=O)(=O)N2CCN(S(=O)(=O)c3c(C)cc(C)cc3C)OCCCCCO2)c(C)c1 | M14 melanoma | > 100 µM |
| O=C(Nc1cccc(-n2cc(-c3ccncc3)c(-c3ccc(Cl)c(O)c3)n2)c1)Nc1ccc(Cl)c(C(F)(F)F)c1 | M14 melanoma | 2.3 µM |
| C[C@@H]1C[N+]2([O-])[C@H]3C4=CCC[C@@H]4CC[C@H]3[C@@]3(C)OC(=O)CC[C@]34CC[C@H]1[C@@H]42 (some centres undefined) | M14 melanoma | > 60 µM |
| CCOC(=O)N1C/C(=C/c2ccc(F)cc2)C(=O)/C(=C/c2ccc(F)cc2)C1 | M14 melanoma | 4.67 µM |
| COc1ccc(C2=C3c4cc(OC)c(OC)cc4CCN3C(=S)SS2)cc1OC | M14 melanoma | > 100 µM |
| O=C(CC1C(=O)Nc2ccccc2S1=O)Nc1ccccc1 (centres undefined) | M14 melanoma | > 100 µM |
| CC(C)(C)OC(=O)NC(Cc1ccc(O)cc1)C(=O)NC(CCCCN)C(=O)O (stereo not drawn) (Boc-Tyr-Lys-OH; configuration not given here) | M14 melanoma | 56 µM |
| NCCN.NCCN.[Cl-].[O]=[Os+2]=[O] | M14 melanoma | > 100 µM |
| CC(=O)OC1CC2(C)C(OC(C)=O)CC1C2(C)C (centres undefined) | M14 melanoma | > 100 µM |
| CN(Cc1cnc2c(n1)C(N)=NN(N)N2)c1ccc(C(=O)NC(CCP(=O)(O)O)C(=O)O)cc1 (centres undefined) | M14 melanoma | > 100 µM |
| CC(C)[C@]12O[C@H]1[C@@H]1O[C@@]13[C@@]1(C)CCC4=C(COC4=O)[C@@H]1C[C@@H]1O[C@@]13C2=O | M14 melanoma | 0.0493 µM |
| O=C1OCC=C1COC1OC(CO)C(O)C(O)C1O (centres undefined) | M14 melanoma | > 100 µM |
| Clc1ccc(CSc2ncnc3c2ncn3C2CCCCO2)cc1 (centres undefined) | M14 melanoma | 31 µM |
| Fc1cnc(NC2CC2)nc1-c1cnc2ccc(N3CCOCC3)cn12 | M14 melanoma | 1.01 µM |
| COc1cccc(/C=C2\CCC(CCN(C)C)(C3=CCCC3)C2=O)c1 (centres undefined) | M14 melanoma | 27.4 µM |
| Cc1ncc([N+](=O)[O-])n1CCNC(=O)CCCn1ccnc1[N+](=O)[O-] | M14 melanoma | > 100 µM |
| Clc1ccc(-c2cc(-c3cc(-c4ccc(Cl)cc4)n[nH]3)[nH]n2)cc1 | M14 melanoma | > 100 µM |
| O=C1C2C=CC(n3[nH]c(=O)n(Cc4ccccc4)c3=O)CC2C(=O)N1c1cccc(Cl)c1 (centres undefined) | M14 melanoma | > 100 µM |
| COc1nc(N)c(C#N)c(C#N)c1C#N | M14 melanoma | > 10 µM |
| CCN1CCN(c2cc(C)nc(N(CCNc3ccnc4cc(Cl)ccc34)Cc3ccc4c(c3)OCO4)n2)CC1 | M14 melanoma | 2.95 µM |
| O=c1cc(-c2ccccc2)oc2cc(Oc3nnnn3-c3ccccc3)ccc12 | M14 melanoma | > 100 µM |
| O=C(NCc1ccc(Cl)cc1Cl)c1ccc(NC2=C(Cl)C(=O)N(Cc3ccccc3)C2=O)cc1 | M14 melanoma | > 100 µM |
| C#C[C@]1(O)CC[C@H]2[C@@H]3CCC4=CC(=NCCOC(=O)c5cccc6cc7ccccc7nc56)CC[C@@H]4[C@H]3CC[C@@]21C | M14 melanoma | 61.3 µM |
| CC(C)=CCc1c(O)c(CC=C(C)C)c2oc(-c3ccc(O)cc3O)c(CC=C(C)C)c(=O)c2c1O | M14 melanoma | 22.5 µM |
| O=C1/C(=C\c2ccccc2)C2/C(=C\c3ccccc3)C(=O)/C(=C\c3ccccc3)C2/C1=C\c1ccccc1 (centres undefined) | M14 melanoma | 3.44 µM |
| CN(C)Cc1cc(N=Nc2ccccc2)ccc1O | M14 melanoma | > 100 µM |
| C=C1C(=O)N[C@H](C)C(=O)N[C@@H](CC(C)C)C(=O)N[C@@H](C(=O)O)[C@H](C)C(=O)N[C@@H](CCCN=C(N)N)C(=O)N[C@@H](/C=C/C(C)=C/[C@H](C)[C@H](Cc2ccccc2)OC)[C@H](C)C(=O)N[C@@H](C(=O)O)CCC(=O)N1C (R[Adda][d(γGlu)][NMeDha][dA]L[dAsp(3S-Me)]-OH; lactam N-7) | M14 melanoma | > 5 µM |
| CSC1=NN(c2ccccc2)C(=O)C1=C(SC)SC | M14 melanoma | > 100 µM |
| O=C(NC(=S)Nc1ccccc1)c1ccc([N+](=O)[O-])cc1 | M14 melanoma | > 100 µM |
| COC1CC(OC2C(C)OC(OC3C(C)OC(OC4C(C)OC(O[C@H]5CC[C@@]6(C)C(=CC[C@]7(O)[C@@H]6C[C@@H](OC(=O)/C=C(\C)C(C)C)[C@@]6(C)[C@]7(O)CC[C@@]6(O)C(C)=O)C5)CC4OC)CC3OC)CC2OC)OC(C)C1O (some centres undefined) | M14 melanoma | > 12.5 µM |
| O=c1c2cc(F)ccc2sc2c(N3CCNCC3)nc3ccccc3c12 | M14 melanoma | 3.27 µM |
| CCOC(=O)C1(O)C(=O)C2=C3C(=O)OC(C4OC(=O)c5c(c(O)c(O)c(O)c5C31)-c1c(cc(O)c(O)c1O)C(=O)OC1COC(=O)c3cc(O)c(O)c(O)c3-c3c(cc(O)c(O)c3O)C(=O)OC14)[C@@H]2O (some centres undefined) | M14 melanoma | 67.6 µM |
| CN1C(=O)CC2CCCN2C1=O (centres undefined) | M14 melanoma | > 100 µM |

---

Catalogue of TGI values
system: NCI/ADR-RES ovarian; test: NCI tumour cell line growth inhibition, 48 h

| compound | TGI |
| --- | --- |
| O=S(=O)(Nc1ccccc1)c1ccc(-c2c3nc(c(-c4ccc(S(=O)(=O)Nc5ccccc5)cc4)c4ccc([nH]4)c(-c4ccc(S(=O)(=O)Nc5ccccc5)cc4)c4nc(c(-c5ccc(S(=O)(=O)Nc6ccccc6)cc5)c5ccc2[nH]5)C=C4)C=C3)cc1 | > 31.6 µM |
| N#CC1CNC(N)NC1N (stereo unspecified) | > 100 µM |
| O=c1c2cc([N+](=O)[O-])ccc2[nH]n1Cc1ccccn1 | > 100 µM |
| O=[N+]([O-])c1ccc2c(c1)Sc1ccccc1N2CCCCCl | > 100 µM |
| CC(=O)C1=C(c2ccccc2)N(C2OC(CO)C(O)C(O)C2O)C(S)=C(C#N)C1c1ccc(Cl)cc1 (stereo unspecified) | > 100 µM |
| O=C(O)CNC(=O)C(CS)Cc1ccccc1 (stereo unspecified) | > 25 µM |
| CCOC(=O)Nn1c(C)nnc1CC#N | > 100 µM |
| Cc1cc2[nH]c(Cl)c(/C=C3\C(=O)Nc4ccccc43)c2cc1O | > 48.9 µM |
| C#C[C@]1(O)CC[C@H]2[C@@H]3CCC4=CC(=NCCOC(=O)c5cccc6cc7ccccc7nc56)CC[C@@H]4[C@H]3CC[C@@]21C | 81.3 µM |
| CCN(CC)C(=O)C[n+]1c2ccccc2n2cc(N)ccc21 | > 100 µM |
| CC(C)(C)OC(=O)C1C(=O)NC(=O)CC1CC(OCc1ccccc1)C(COCc1ccccc1)OCc1ccccc1 (stereo unspecified) | 82.8 µM |
| Cn1ncc2[nH]cnc2c1=S | > 100 µM |
| O=C1Nc2cc(Cl)ccc2/C1=C\c1c(-c2ccc(F)cc2)nc2ccccn12 | 1.06 µM |
| Cn1c(O)c(C2=Nc3ccccc3C2=O)c2ccccc21 | > 100 µM |
| CCOC(=O)c1sc2nc(SC)nc3c2c1NCN3C1CC1 | > 100 µM |
| CC1=NCCc2cc3[nH]c4ccccc4c3cc21 | 83.8 µM |
| CCN(CC)CCOc1ccc(N2C(=O)c3cccc4cc([N+](=O)[O-])cc(c34)C2=O)cc1 | 60 µM |
| O=C1C=CC(=O)N1C1CCCCCCCCCCC1 | > 100 µM |
| CN1CCc2c(c3ccccc3c3ccccc23)C1 | 25.3 µM |
| S=C(S)N1CCN(c2cccc(Cl)c2)CC1 | > 100 µM |
| CCCC1C(CC)C(NC)C(C#N)(C#N)C1(C#N)C#N (stereo unspecified) | 59 µM |

Entry source: PubChem BioAssay (NCI)
